Measured values drawn from paper PMC5522071 for this set.

SYSTEM UNDER TEST: CDK5/p25 (Homo sapiens, UniProt Q00535)
Construct: purchased Nanosyn, Inc. (contract assay)
Sequence (Q00535 whole entry): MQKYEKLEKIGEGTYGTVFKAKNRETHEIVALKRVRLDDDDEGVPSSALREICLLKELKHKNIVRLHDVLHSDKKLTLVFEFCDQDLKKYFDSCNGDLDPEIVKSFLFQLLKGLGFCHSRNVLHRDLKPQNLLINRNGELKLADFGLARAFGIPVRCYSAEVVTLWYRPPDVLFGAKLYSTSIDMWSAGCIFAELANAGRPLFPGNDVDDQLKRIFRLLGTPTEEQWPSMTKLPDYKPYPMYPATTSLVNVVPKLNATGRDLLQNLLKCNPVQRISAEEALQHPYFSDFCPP
Sequence (Q15078 99-307 partner limits assumed): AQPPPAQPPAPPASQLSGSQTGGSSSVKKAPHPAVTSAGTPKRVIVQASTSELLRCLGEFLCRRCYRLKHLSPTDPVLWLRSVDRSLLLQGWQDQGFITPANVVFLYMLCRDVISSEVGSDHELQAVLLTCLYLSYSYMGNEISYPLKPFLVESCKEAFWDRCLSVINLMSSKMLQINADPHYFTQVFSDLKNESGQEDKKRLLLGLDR
Format: biochemical
CONDITION PARAMETERS: 12-point dose response, singlicate, at Km for ATP

| CHEMICAL STRING | IC50, nM |
| --- | --- |
| CC(C)N1CCN(c2ccc(Nc3ncc4cc5n(c4n3)C3(CCCCC3)CNC5=O)nc2)CC1.Cl.Cl | 1200 |

* * *

ASSAY INFO: in vivo
CONDITION PARAMETERS: C57BL/6, mouse, po, 100 mg/kg
TEST READOUT: concentration at 48 h

| CHEMICAL STRING | MEASURED |
| --- | --- |
| CC(C)N1CCN(c2ccc(Nc3ncc4cc5n(c4n3)C3(CCCCC3)CNC5=O)nc2)CC1.Cl.Cl | ~65 ng/mL |
